The values you see were collected from patent US7666906B2.

- system under test: human EAAT3 (Homo sapiens, UniProt P43005)
- Construct: expressed in transfected cells
- Sequence (P43005 whole entry): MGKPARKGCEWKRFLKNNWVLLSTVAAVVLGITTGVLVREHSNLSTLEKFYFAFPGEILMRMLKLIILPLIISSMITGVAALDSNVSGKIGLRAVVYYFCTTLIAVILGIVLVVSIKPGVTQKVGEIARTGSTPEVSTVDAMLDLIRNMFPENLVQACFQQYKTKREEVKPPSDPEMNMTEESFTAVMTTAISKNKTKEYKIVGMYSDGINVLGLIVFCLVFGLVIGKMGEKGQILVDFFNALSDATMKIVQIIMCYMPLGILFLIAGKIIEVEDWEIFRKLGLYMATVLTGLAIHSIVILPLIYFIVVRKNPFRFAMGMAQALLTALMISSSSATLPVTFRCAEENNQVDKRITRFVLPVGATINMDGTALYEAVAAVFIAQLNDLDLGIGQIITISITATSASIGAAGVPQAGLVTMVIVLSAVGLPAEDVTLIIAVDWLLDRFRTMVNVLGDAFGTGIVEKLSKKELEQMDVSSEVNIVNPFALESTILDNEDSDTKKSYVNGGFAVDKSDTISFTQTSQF
- test description: inhibition of [14C]glutamate uptake by human EAAT3 expressed on MDCK or COS-1 cells
- Format: cell-based
- particulars: stably expressed on MDCK cells; 1 μM L-[14C]glutamate, 12 minutes
Catalogue of IC50 values
Provide the reading as a plain figure in nM.

Record excerpt, results attached:
compound	IC50 / nM
CC(C)(C)C(=O)Nc1cccc(CO[C@H](C(=O)O)[C@H](N)C(=O)O)c1	4100
N[C@H](C(=O)O)[C@H](OCc1cccc(NC(=O)c2ccc(C(F)(F)F)cc2)c1)C(=O)O	28
N#Cc1ccc(C(=O)Nc2cccc(CO[C@H](C(=O)O)[C@H](N)C(=O)O)c2)cc1	1400
N[C@H](C(=O)O)[C@H](OCc1cccc(NC(=O)c2ccc(-c3ccccc3)cc2)c1)C(=O)O	34

Please list IC50 recorded for the compound `N[C@H](C(=O)O)[C@H](OCc1cccc(NC(=O)c2ccc(OCCCCCNC(=O)CCCC[C@@H]3SC[C@@H]4NC(=O)N[C@@H]43)cc2)c1)C(=O)O`
1100

Please list IC50 recorded for the compound `CC(C)(C)c1ccc(C(=O)Nc2cccc(CO[C@H](C(=O)O)[C@H](N)C(=O)O)c2)cc1`
182

Please list IC50 recorded for the compound `COc1ccc(C(=O)Nc2cccc(CO[C@H](C(=O)O)[C@H](N)C(=O)O)c2)cc1`
266

Please list IC50 recorded for the compound `N[C@H](C(=O)O)[C@H](OCc1cccc(NC(=O)CCNC(=O)CCCC[C@@H]2SC[C@@H]3NC(=O)N[C@@H]32)c1)C(=O)O`
10000

Please list IC50 recorded for the compound `N[C@H](C(=O)O)[C@H](OCc1cccc(NC(=O)C2CCCCC2)c1)C(=O)O`
288

---

- system under test: human EAAT3 (Homo sapiens, UniProt P43005)
- Construct: expressed in transfected cells
- test description: inhibition of [14C]glutamate uptake by human EAAT3 expressed on MDCK or COS-1 cells
- Format: cell-based
- particulars: stably expressed on MDCK cells; 1 μM L-[14C]glutamate, 12 minutes
property label: pIC50
Reminder that pIC50 means the negative base-10 logarithm of the concentration expressed in mol/L.

compound	pIC50
N[C@H](C(=O)O)[C@H](OCc1cccc(NC(=O)c2ccc(OC(F)(F)F)cc2)c1)C(=O)O	6.89
NCCCCCOc1ccc(C(=O)Nc2cccc(CO[C@H](C(=O)O)[C@H](N)C(=O)O)c2)cc1	5.66
N[C@H](C(=O)O)[C@H](OCc1cccc(NC(=O)c2ccc(F)cc2)c1)C(=O)O	6.33
CCC(=O)NCCC(=O)Nc1cccc(COC(C(=O)O)C(N)C(=O)O)c1 (centres unmarked)	5.12

Look up and report pIC50, with human EAAT3 (Homo sapiens, UniProt P43005) as system, for `COc1ccc(C(=O)Nc2cccc(CO[C@H](C(=O)O)[C@H](N)C(=O)O)c2)cc1OC`
6.04

Look up and report pIC50, with human EAAT3 (Homo sapiens, UniProt P43005) as system, for N[C@H](C(=O)O)[C@H](OCc1ccccc1)C(=O)O [TBOA, L-threo-β-benzyloxyaspartate, reference compound]
5.89

Look up and report pIC50, with human EAAT3 (Homo sapiens, UniProt P43005) as system, for `Nc1cccc(CO[C@H](C(=O)O)[C@H](N)C(=O)O)c1`
5.10

Look up and report pIC50, with human EAAT3 (Homo sapiens, UniProt P43005) as system, for `N[C@H](C(=O)O)[C@H](OCc1cccc(NC(=O)c2ccccc2)c1)C(=O)O`
6.14
